All figures here come from patent US20080090278A1.

- System: recombinant FAD-GDH (rAT-FAD-GDH) derived from Aspergillus terreus
- ASSAY_REMARKS: Thermal stabilization effect of stabilizing agents on rAT-FAD-GDH in solution (Example 9)
- Assay type: physicochemical
- ASSAY_CONDITIONS: Table 10; buffer 50 mM K-PB; 50° C., 15 min versus 4° C.; stabilizer at each final concentration described in Table 1
Kindly supply the reported Residual activity ratio (%) values for the records listed here.
In your response, put the unit directly after the numeric value.

- COMPOUND: "N[C@@H](CO)C(=O)O"
  Residual activity ratio (%): "3.0%"
- COMPOUND: "O=C(O)[C@@H]1CCCN1 [L-(−)-proline]"
  Residual activity ratio (%): "1.8%"
- COMPOUND: "N[C@@H](Cc1ccccc1)C(=O)O"
  Residual activity ratio (%): "1.2%"

Entry O=C[C@H](O)[C@@H](O)[C@@H](O)[C@H](O)CO has what Residual activity ratio (%)? 17.2%
